# protocol-notes: Maximum drug loading capacity
# Type: physicochemical
# protocol-conditions: IIIA-LC, 37 °C, mean (sd)
measured-metric: maximum drug loading capacity (loading)

INSERT INTO results (molecule, value_measured) VALUES
  ('COc1ccc2c(c1)c(CC(=O)O)c(C)n2C(=O)c1ccc(Cl)cc1', '31.9 (1.1) mg/g'),
  ('CCOC(=O)C1=C(C)NC(C)=C(C(=O)OC)C1c1cccc(Cl)c1Cl (stereo not shown)', '75.4 (4.7) mg/g'),
  ('CC(=O)N1CCN(c2ccc(OCC3COC(Cn4ccnc4)(c4ccc(Cl)cc4Cl)O3)cc2)CC1 (stereo not shown)', '9.7 (1.2) mg/g'),
  ('C#C[C@]1(O)CC[C@H]2[C@@H]3CCC4=Cc5oncc5C[C@]4(C)[C@H]3CC[C@@]21C', '16.4 (0.7) mg/g'),
  ('C(=C\c1ccccc1)/CN1CCN(C(c2ccccc2)c2ccccc2)CC1', '34.5 (3.2) mg/g'),
  ('O=C(CCCN1CCC(O)(c2ccc(Cl)cc2)CC1)c1ccc(F)cc1', '3.9 (1.2) mg/g'),
  ('O=C(Nc1ccc([N+](=O)[O-])cc1Cl)c1cc(Cl)ccc1O [Niclosamide]', '13.6 (0.4) mg/g');

The measurements presented in this section are drawn from paper PMC6209313.
